Numbers sourced from ChEMBL document CHEMBL3585251.

protocolSummary: Selectivity index, ratio of EC50 for effect on basal transcription in human U251 cells co-transfected with pGL3 to EC50 for Inhibition of human HIF1alpha expressed in human U251 cells co-transfected with pGL2-TK-HRE
Design: species or system U-251
assayMetric: Ratio EC50

### Prompt Quick check: Ratio EC50 of COc1cccc2c1C(=O)[C@@H]1C[C@@H]3C(=CC[C@@H]4C(=O)NC(=O)[C@@H]43)[C@H](c3ccc(C(F)(F)F)cc3)[C@]1(C)C2=O (racemic) ?
### Response >3

### Prompt Check C[C@@]12C[C@@H]3C(=CC[C@@H]4C(=O)N(CCC(=O)O)C(=O)[C@@H]43)[C@H](c3ccc(F)cc3)[C@@H]1C(=O)c1ccccc1C2=O (racemic) too.
### Response 2.15

### Prompt Try this compound next: C[C@@]12C[C@@H]3C(=CC[C@@H]4C(=O)N(CCC(=O)O)C(=O)[C@@H]43)[C@H](c3ccc(Br)cc3)[C@@H]1C(=O)c1ccccc1C2=O (racemic)
### Response >14

### Prompt Now this one: C[C@@]12C(=O)c3cccc(O)c3C(=O)[C@@H]1C[C@@H]1C(=CC[C@@H]3C(=O)NC(=O)[C@@H]31)[C@@H]2c1ccc(C(F)(F)F)cc1 (racemic)
### Response >3

### Prompt What about this compound? C[C@@]12C[C@@H]3C(=CC[C@@H]4C(=O)NC(=O)[C@@H]43)[C@H](c3ccc(C(F)(F)F)cc3)[C@@H]1C(=O)c1ccccc1C2=O (racemic)
### Response >8.6

### Prompt Next compound up: C[C@@]12C[C@@H]3C(=CC[C@@H]4C(=O)NC(=O)[C@@H]43)[C@H](c3ccc(C(F)(F)F)cc3)[C@]1(C)C(=O)c1ccccc1C2=O (racemic)
### Response >2.7

### Prompt Also COc1cccc2c1C(=O)[C@@H]1C[C@@H]3C(=CC[C@@H]4C(=O)N(CCC(=O)O)C(=O)[C@@H]43)[C@H](c3ccc(Br)cc3)[C@]1(C)C2=O (racemic) , if possible.
### Response >1.4

====

experimentalSystem: Hypoxia-inducible factor 1-alpha (Homo sapiens, UniProt Q16665)
Sequence (Q16665 whole entry): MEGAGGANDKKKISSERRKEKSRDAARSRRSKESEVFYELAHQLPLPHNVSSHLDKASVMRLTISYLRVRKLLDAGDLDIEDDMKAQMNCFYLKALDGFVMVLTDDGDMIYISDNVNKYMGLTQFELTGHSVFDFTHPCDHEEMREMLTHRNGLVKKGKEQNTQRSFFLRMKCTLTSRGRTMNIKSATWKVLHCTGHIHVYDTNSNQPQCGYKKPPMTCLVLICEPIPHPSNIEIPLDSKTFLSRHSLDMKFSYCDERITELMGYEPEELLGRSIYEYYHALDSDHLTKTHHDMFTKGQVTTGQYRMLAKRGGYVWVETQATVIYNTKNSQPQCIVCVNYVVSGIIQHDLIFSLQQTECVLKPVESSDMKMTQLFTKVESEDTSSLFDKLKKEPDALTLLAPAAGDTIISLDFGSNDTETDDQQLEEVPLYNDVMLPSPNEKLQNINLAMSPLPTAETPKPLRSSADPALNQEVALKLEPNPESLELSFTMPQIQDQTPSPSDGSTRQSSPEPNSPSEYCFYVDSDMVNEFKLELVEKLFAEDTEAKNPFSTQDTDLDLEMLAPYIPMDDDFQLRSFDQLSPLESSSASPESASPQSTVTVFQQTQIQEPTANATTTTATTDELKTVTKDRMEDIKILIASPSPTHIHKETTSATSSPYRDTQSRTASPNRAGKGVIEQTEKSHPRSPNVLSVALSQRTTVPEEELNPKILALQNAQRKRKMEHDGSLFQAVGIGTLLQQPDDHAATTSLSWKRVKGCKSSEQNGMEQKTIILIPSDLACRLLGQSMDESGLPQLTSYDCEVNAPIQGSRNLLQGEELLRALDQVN
protocolSummary: Inhibition of human HIF1alpha-mediated transcription expressed in human U251 cells co-transfected with pGL2-TK-HRE incubated for 24 hrs by luciferase reporter gene assay
Provide the recorded EC50 for the entries that follow.
Report only the number, with the unit µM understood.

### Prompt # get_value(readout= EC50, system= Hypoxia-inducible factor 1-alpha (Homo sapiens, UniProt Q16665)) for C[C@@]12C[C@@H]3C(=CC[C@@H]4C(=O)NC(=O)[C@@H]43)[C@H](c3ccc(C(F)(F)F)cc3)[C@]1(C)C(=O)c1ccccc1C2=O (racemic)
### Response 7.8

### Prompt Proceed to COc1cccc2c1C(=O)[C@@H]1C[C@@H]3C(=CC[C@@H]4C(=O)N(CCC(=O)O)C(=O)[C@@H]43)[C@H](c3ccc(Br)cc3)[C@]1(C)C2=O (racemic)
### Response 15.5

### Prompt Subsequent entry: C[C@@]12C[C@@H]3C(=CC[C@@H]4C(=O)N(CCC(=O)O)C(=O)[C@@H]43)[C@H](c3ccc(Br)cc3)[C@@H]1C(=O)c1ccccc1C2=O (racemic)
### Response 1.4

### Prompt Next: C[C@@]12C(=O)c3cccc(O)c3C(=O)[C@@H]1C[C@@H]1C(=CC[C@@H]3C(=O)NC(=O)[C@@H]31)[C@@H]2c1ccc(C(F)(F)F)cc1 (racemic)
### Response 6.7

### Prompt Same thing, different molecule: COc1cccc2c1C(=O)[C@@H]1C[C@@H]3C(=CC[C@@H]4C(=O)NC(=O)[C@@H]43)[C@H](c3ccc(C(F)(F)F)cc3)[C@]1(C)C2=O (racemic)
### Response 6.7

### Prompt Can you check C[C@@]12C[C@@H]3C(=CC[C@@H]4C(=O)N(CCC(=O)O)C(=O)[C@@H]43)[C@H](c3ccc(F)cc3)[C@@H]1C(=O)c1ccccc1C2=O (racemic) next?
### Response 4.1

### Prompt Please give the result for C[C@@]12C[C@@H]3C(=CC[C@@H]4C(=O)NC(=O)[C@@H]43)[C@H](c3ccc(C(F)(F)F)cc3)[C@@H]1C(=O)c1ccccc1C2=O (racemic) too.
### Response 2.3
